Molecular target: T1, NtcA MED4 (Prochlorococcus sp. MED4, UniProt Q7TUG3 1-244)
T1 sequence: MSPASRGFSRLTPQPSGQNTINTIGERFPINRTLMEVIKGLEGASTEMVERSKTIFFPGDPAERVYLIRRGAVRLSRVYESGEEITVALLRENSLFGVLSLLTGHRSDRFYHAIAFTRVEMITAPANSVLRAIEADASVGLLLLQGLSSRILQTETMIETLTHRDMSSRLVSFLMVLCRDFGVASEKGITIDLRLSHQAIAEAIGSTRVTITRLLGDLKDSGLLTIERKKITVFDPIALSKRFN
Test: ITC; independent of 2OG; ITC: 50 mM Hepes, 350 mM NaCl, pH 7.5, 25 C, 0-10 mM 2OG; SPR: Biacore X, CM5 with neutravidin, 25 C, buffer not given; EMSA: as Napolitano et al. 2012, 1 uM NtcA
Settings: protein: recombinant; tags: His6 (pET-15b); chain copies: 2; blunt
pKd: −log10 of the molar value.

BINDER | pKd
DNA6, glnA promoter MED4 mutated (dsDNA) DNA 1: AAAAACTAACCTTTGACTGATAAT DNA 2: ATTATCAGTCAAAGGTTAGTTTTT | 5.02
